Entry source: patent US20260209206A1

# Study Target: biotinylated truncated STAT6 (123-632)-avi (Homo sapiens, UniProt P42226)
# Construct: 0.15 nM biotinylated truncated STAT6 (123-632)-avi purified from E. coli
# Sequence (P42226 123-632 limits assumed): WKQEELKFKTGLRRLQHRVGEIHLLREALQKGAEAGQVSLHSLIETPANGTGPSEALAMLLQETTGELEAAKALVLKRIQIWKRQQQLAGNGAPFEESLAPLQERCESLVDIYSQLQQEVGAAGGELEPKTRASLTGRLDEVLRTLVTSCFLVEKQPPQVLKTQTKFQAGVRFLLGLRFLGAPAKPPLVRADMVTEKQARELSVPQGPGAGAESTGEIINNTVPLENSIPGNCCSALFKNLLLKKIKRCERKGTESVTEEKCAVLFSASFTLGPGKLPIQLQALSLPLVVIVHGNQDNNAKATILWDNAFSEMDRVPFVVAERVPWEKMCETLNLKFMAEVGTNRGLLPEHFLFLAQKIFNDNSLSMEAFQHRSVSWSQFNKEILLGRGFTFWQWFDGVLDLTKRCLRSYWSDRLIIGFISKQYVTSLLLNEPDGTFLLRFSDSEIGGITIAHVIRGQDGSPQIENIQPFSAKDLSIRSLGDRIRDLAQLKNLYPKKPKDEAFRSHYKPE
# Test Method Notes: STAT6 HTRF binding assay
# Applied Conditions: 0.15 nM STAT6 (123-632)-avi, 20 nM fluorescein-labeled probe, 30 minutes at room temperature
pIC50: −log10 of the molar value.
As shown below, each of these compounds has a reported pIC50 value.
Value Type: pIC50

Compound | Study Target | Value Type | Obs Value
COc1cc(N2CCN(CCc3cccc4c3n(C)c(=O)n4C3CCC(=O)NC3=O)CC2)ccc1-c1cc(C2=CCCN(C(=O)CCn3ccnn3)C2)cc2ccncc12 (centres unmarked) [I-1401] | biotinylated truncated STAT6 (123-632)-avi (Homo sapiens, UniProt P42226) | pIC50 | 4.00 to 5.00
COc1cc(N2CCN(CCc3cccc4c3n(C)c(=O)n4C3CCC(=O)NC3=O)CC2)ccc1-c1cc(C2=CCCN(C(=O)CCn3ccnn3)C2)cc2c1CN(C(=O)N(C)C)C2 (centres unmarked) [I-1334] | biotinylated truncated STAT6 (123-632)-avi (Homo sapiens, UniProt P42226) | pIC50 | 5.00 to 6.00
COc1cc(N2CCN(CCc3cccc4c3n(C)c(=O)n4C3CCC(=O)NC3=O)CC2)ccc1-c1cc(C2=CCCN(C(=O)CCn3ccnn3)C2)c(F)c2cnccc12 (centres unmarked) [I-1270] | biotinylated truncated STAT6 (123-632)-avi (Homo sapiens, UniProt P42226) | pIC50 | 5.00 to 6.00
COc1cc(N2CCN(CCc3cccc4c3n(C)c(=O)n4C3CCC(=O)NC3=O)CC2)ccc1-c1cc(C2=CCCN(C(=O)CCn3ccnn3)C2)cc2cc(C(=O)N(C)C)cnc12 (centres unmarked) [I-1338] | biotinylated truncated STAT6 (123-632)-avi (Homo sapiens, UniProt P42226) | pIC50 | 4.00 to 5.00
COc1cc(N2CCN(CCc3cccc4c3n(C)c(=O)n4C3CCC(=O)NC3=O)CC2)ccc1-c1cc(C2=CCCN(C(=O)CCn3ccnn3)C2)cc2ccc(C(=O)N(C)C)cc12 (centres unmarked) [I-1293] | biotinylated truncated STAT6 (123-632)-avi (Homo sapiens, UniProt P42226) | pIC50 | > 7.00
